# ASSAY_NOTES: label from the status in PepcDB records;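 note: failed if final PepcDB status was selected cloned or expressed and not failed if soluble or beyond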
MEASUREMENT_NAME: protein production

INSERT INTO measurements (chain, measurement_name, result_value) VALUES
  ('MKYYPFSYYRSINAADLYENIKAYTVLDVREPFELIFGSIANSINIPISELREKWKILERDKKYAVICAHGNRSAAAVEFLSQLGLNIVDVEGGIQSWIEEGYPVVYGRESAEDLEHHHHHH', 'protein production', 'not failed'),
  ('MSTSLTIRLVAEADWPALHALDQIIWTKKNTPAEIQPLSLAAYQEKMKDETIFVAISGQQLAGFIEVHPPTSLAAHQKQWLLSIGVSPDFQDQGIGGSLLSYIKDMAEISGIHKLSLRVMATNQEAIRFYEKHGFVQEAHFKEEFYINGHYCDDYQYAYFIEK', 'protein production', 'not failed'),
  ('MTQKVALIGFGGVAQGFIQILRERGEELPEHIQVVSITDWRRGAVHDPNGLDLDFIAKIIETDGTFEHYPERSGVIKGWNSFETIQQTNADTIVEVTFTDVLTGQPAIDHCKEALRLGKHVVTTNKGPIAVAYQELKELADANGVQLLYEGTVMSGTPALRLPEHTLIGNNIQEVKGILNGTTNYILTEMERGKTFEQALQDAQTLGYAEADPTSDVEGYDVLYKVVILANVMMGIPLKPSDVERVGISHLTPRDIKDAHSAGERWKLIGRVKKEGERTMATVRPERLPLTDPLANINGAINAITYECDISGPITLIGAGAGVKETGFALLIDLLHVNRLGE', 'protein production', 'failed'),
  ('MDISGHPKTRTRTIFDEVDEPVWFCCVLPIWVGEEMASGWGITGNKGRCYDFWMDFSECMSHCREPKDCTLLREDYLECLHHSKEFQRRNRIYKEEQRKLRAASRKGEEAGDGTHNHH', 'protein production', 'failed'),
  ('MHSPQISPPIAPSTPLLAGWRSAGKAPEAAIRGEAVSLQPLDAPRHGAALFRLFAGDDSHWEHLPYGPFEDEDAFITWLALTVAQSDTALYVVCAKDSDQALGFLGYRQMVQAHGAIEIGHVNFSPALRRTRLATEAVFLLLKTAFELGYRRCEWRCDSRNAASAAAARRFGFQFEGTLRQAMVVKRRNRDTHVFSMLDGEWDALK', 'protein production', 'not failed'),
  ('MRPEIAVLDIQGQYRVYTEFYRADAAENTIILINGSLATTASFAQTVRNLHPQFNVVLFDQPYSGKSKPHNRQERLISKETEAHILLELIEHFQADHVMSFSWGGASTLLALAHQPRYVKKAVVSSFSPVINEPMRDYLDRGCQYLAACDRYQVGNLVNDTIGKHLPSLFKRFNYRHVSSLDSHEYAQMHFHINQVLEHDLERALQGARNINIPVLFINGERDEYTTVEDARQFSKHVGRSQFSVIRDAGHFLDMENKTACENTRNVMLGFLK', 'protein production', 'failed'),
  ('MSAVMARRIAVVGGGVAGLMAAWWASNYGYDVVVYEADLSSLTATRVSAGIIDPTIDISLAPVALETLSLLKRLGLGLESRLLWLHERGSCRRLERLLSDKGIIERSVAGEESIRLGRYTVNLGYGEELHVINTIIVDTGEFYSLASSASNVDIVEDSVEYVGCGSVGLKRGGSREFDAIIVAAGPWTGFISGLQALSNMLRVYRCEALIIRAGGGPFAVVDDILDFYLSIHASGDGVLGNGCCVEIASPLDGYRYSGDVLDAVISRSIERLEGLGEAELITPVSAPCVVGRDARPVLGMLPGCSRVYLLAGLDGVGVTLAPVLARLVVESIATGSQEPIPPEMAASRPTSSSESVVKEPVEEC', 'protein production', 'failed'),
  ('MATRRLTDAFLLLRNNSIQNRQLLAEQVSSHITSSPLHSRSIAALADDRMALVSGISLDPEAAIGVTKRPPPKWVDGVDEIQYDVGRIKQKMKELASLHDKHLNRPTLDDSSEEEHAIEITTQEITQLFHRCQRAVQALPSRARACSEQEGRLLGNVVASLAQALQELSTSFRHAQSGYLKRMKNREERSQHFFDTSVPLMDDGDDNTLYHRGFTEDQLVLVEQNTLMVEEREREIRQIVQSISDLNEIFRDLGAMIVEQGTVLDRIDYNVEQSCIKTEDGLKQLHKAEQYQKKNRKMLVILILFVIIIVLIVVLVGVKSR', 'protein production', 'failed'),
  ('MRRASQMFDFIGFKEGAMAFLLAFALAGLFTIAFKYVYQWVTPYNEKALIREGNTAAAIALAGALIGYVLPLASALSHTVSLPEFAAWATLAGVIQIAAFTGVRLVALPDVKARIENGEVSVGVYLAGISIAVGLLNAACMTT', 'protein production', 'failed'),
  ('MREVSLRIDRYLVNTRITPNQLTYLMTVCGVLAAPALLVPGIWGAVLGVVAVQLYLLLDCVDGEIARWRKQYSLGGVYLDRVGAYLTDAAVLVGLGLRAADIWGTGRIDWLWAFLGTLAALGAILIKAETDLVGVARHQNGMPPVKEAASEIRSSGMALARRAAGALKFHRLILGIEATLLILVLAIVDQARGDLFFTRLGTAVLAGIALLQTLLHLVSILASSRLK', 'protein production', 'failed'),
  ('MDAKEDVRPTGRGGRGVTAKSHVIVTSNMSVRQFLDVKYTTMNLNLFLSLDPIVDDNQNTLIKKDCSGRVDKDKGIVGDAQVFYTNGFKMSAMVTKHTNRSYLNNPTSIRRKLFDDAGVKGSNGVVRFHSVETSNVVTISVVNDFYNNEMGDDGVTNVTGIIRLARSTNGDSN', 'protein production', 'failed'),
  ('IEKCWTEDEVKRFVKGLRQYGKNFFRIRKELLPNKETGELITFYYYWKKT', 'protein production', 'not failed'),
  ('MPLVNSHIVEECLPFTSLRLDPEDINLSMGAGYVPDAEIQAISDALETEIAGICTPRFLYALFDAEPAGTCEVGVNGISLKTGSVITPYLKDAAGYVLFVATAGYEFEAFQHRIGSQGDILREFLLDAYGSAIAEAVVREVCRKVESRMFPLGYGVSHPYSPGYCGWHVTQQQLLFSCLPEFPCGVRLSDSSLMSPIKSVSGIIAYGPCIVKRKYGCELCGKADCYKNRNKLNRLEHHHHHH', 'protein production', 'not failed');
